Could you please report measured IC50 for the items listed next?
# assayed.system: T1, human HER-2 extracellular domain (HER-2 ECD) (human, UniProt P04626 23-646)
# T1 construct: range 23-646; also called erbB2; HER2 protein
# assay.procedure: competitive Fab-phage ELISA
Reply with the number and its unit after it.

Need IC50, item G53 (Fab, V domains shown) VH: EVQLVESGGGLVQPGGSLRLSCAASGFSISSSYIHWVRQAPGKGLEWVASIYPYSGYTSYADSVKGRFTISADTSKNTAYLQMNSLRAEDTAVYYCARYYSSAFDYWGQGTLVTVSS VL: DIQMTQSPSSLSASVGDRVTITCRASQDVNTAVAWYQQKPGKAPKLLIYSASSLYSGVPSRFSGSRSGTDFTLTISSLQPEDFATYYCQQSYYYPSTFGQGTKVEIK
9.75 nM

Need IC50, item G29 (Fab, V domains shown) VH: EVQLVESGGGLVQPGGSLRLSCAASGFSIWWSWIHWVRQAPGKGLEWVASISPSSGWTSYADSVKGRFTISADTSKNTAYLQMNSLRAEDTAVYYCARWWSSAIDYWGQGTLVTVSS VL: DIQMTQSPSSLSASVGDRVTITCRASQDVNTAVAWYQQKPGKAPKLLIYSASSLYSGVPSRFSGSRSGTDFTLTISSLQPEDFATYYCQQSWWWPWTFGQGTKVEIK
1.96 nM

Need IC50, item G56 (Fab, V domains shown) VH: EVQLVESGGGLVQPGGSLRLSCAASGFYISSSYIHWVRQAPGKGLEWVASIYPYSGYTSYADSVKGRFTISADTSKNTAYLQMNSLRAEDTAVYYCARYYSYALDYWGQGTLVTVSS VL: DIQMTQSPSSLSASVGDRVTITCRASQDVNTAVAWYQQKPGKAPKLLIYSASSLYSGVPSRFSGSRSGTDFTLTISSLQPEDFATYYCQQSYYSPSTFGQGTKVEIK
7.13 nM
